- assay-overview: NOVARTIS: Cytotoxicity against human hepatocellular carcinoma cell line (Huh7)
- Format: toxicity, cell-based, Huh-7
- test-parameters: Huh7 cells (hepatocellular carcinoma cell line)
quantity: CC50

Entry Cc1ccc(NC(C)C(=O)Nc2ccc(C#N)cc2)cc1S(=O)(=O)N1CCCCC1 (stereo not drawn) , CC50 reported as 59.5 µM

Entry `COc1ccc(-n2c(=S)[nH]c3cc(C(=O)Nc4cccc(C)c4)ccc3c2=O)cc1OC` , CC50 reported as > 10 µM

Entry `O=C(O)c1c[nH]c2cc(N3CCCCCC3)c(F)cc2c1=O` , CC50 reported as > 100 µM

Entry COc1ccc(OC)c(-c2ccc(O)c(CNCC3CC4C=CC3C43CC3)c2)c1 (stereo not drawn) , CC50 reported as 20.6 µM

Entry `Fc1ccc2[nH]c3c(N4CCN(C(c5ccccc5)c5ccccc5)CC4)ncnc3c2c1` , CC50 reported as 14.8 µM

Entry `c1cc2c(cc1Nc1c3c(nc4nncn14)CCC3)OCCO2` , CC50 reported as > 100 µM

Entry CCCCCCOC(=O)C1=C(C)NC(=O)NC1c1ccccc1F (stereo not drawn) , CC50 reported as > 100 µM

Entry `CNC(=O)[C@@H]1C[C@@H](NCc2ccc(OC)cc2)CN1Cc1ccccc1` , CC50 reported as > 10 µM
